# test.system: hErbB3.mmh (soluble monomeric human ErbB3 extracellular domain with C-terminal myc-myc-hexahistidine tag) (human, UniProt P21860 20-642)
# Sequence (P21860 other isoform, or with tags, fused parts or gaps): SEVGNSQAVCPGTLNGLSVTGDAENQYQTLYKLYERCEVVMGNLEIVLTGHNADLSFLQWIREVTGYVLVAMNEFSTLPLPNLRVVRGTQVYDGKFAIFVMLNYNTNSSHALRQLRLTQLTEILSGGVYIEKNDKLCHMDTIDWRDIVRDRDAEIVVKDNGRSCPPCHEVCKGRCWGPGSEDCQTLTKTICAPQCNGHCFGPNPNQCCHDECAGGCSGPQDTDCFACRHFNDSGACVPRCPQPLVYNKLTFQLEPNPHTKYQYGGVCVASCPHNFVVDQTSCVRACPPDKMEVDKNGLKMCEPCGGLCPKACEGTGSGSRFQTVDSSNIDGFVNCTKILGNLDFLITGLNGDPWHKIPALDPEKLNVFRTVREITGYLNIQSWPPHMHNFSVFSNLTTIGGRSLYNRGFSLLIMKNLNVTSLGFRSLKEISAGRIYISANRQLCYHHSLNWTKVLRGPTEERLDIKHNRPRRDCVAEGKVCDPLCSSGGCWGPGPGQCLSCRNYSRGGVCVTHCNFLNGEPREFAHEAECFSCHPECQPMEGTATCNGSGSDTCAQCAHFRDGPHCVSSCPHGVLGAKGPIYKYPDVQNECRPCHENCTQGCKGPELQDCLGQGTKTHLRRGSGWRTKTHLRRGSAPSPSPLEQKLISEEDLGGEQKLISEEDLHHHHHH
# procedure.details: SPR (Biacore), 25 C, mAb capture format
observed.property: koff (s⁻¹)
State the answer as a number, implicitly in s⁻¹.

Worked examples follow.
>  <binder>
H4H2094P (antibody, V domains shown, Fully human, human IgG4 Fc (H4H prefix)) VH: EVQLVESGGGLVQPGGSLRLSCAASGFTFSSYDMHWVRQATGKGLEWVSAIGPAGDTYYPVSAMGRFTISRDDAKNSLYLQMNSLRAGDTAVYYCAREGVTIRPDDYFGLDVWGQGTTVTVSA VL: DIQLTQSPSFLSASVGDRVTITCWASQGISDYLAWYQKKPGKAPQLLIYAATTLQSGVPSRFSGSGSGTEFTLTISSLQPEDFATYYCQQLNTYPLTFGGGTKVEIKR

>  <endpoint.unit>
s⁻¹

>  <koff>
1.37e-05

$$$$
>  <binder>
H4H2138P (antibody, V domains shown, Fully human, human IgG4 Fc (H4H prefix)) VH: QVQLQESGPGLVKPSQTLSLTCTVSGGSINSGGYYWSWIRQHPGKGLEWIGYISYSGNTNYNPSLKSRVTISVDTSKNQFSLTLTSVTAADTAVYYCARDSDVDTGLVDGFDVWGQGTMVTVSS VL: DIVMTQSPSSVSASVGDRVTITCRASQGVSSWLAWYQQKPGKAPKLLIYTTSSLQSGVPSRFSGSGSGTDFTLTISSLQPEDFATYYCQQSNSFPFTFGPGTKVEIK

>  <endpoint.unit>
s⁻¹

>  <koff>
5.01e-05

$$$$

Next, consider the following binder.
koff for H4H2111P (antibody, V domains shown, Fully human, human IgG4 Fc (H4H prefix)) VH: QVQLVESGGGVVQPGRSLRLSCAASGFTFNNYGMHWVRQAPGKGLAWVAVMWYSESHKYYADSVKGRFTISRDNSKNTLYLEMNSLRVEDTAIYYCARDLGDPDAFDIWGQGTMVTVSS VL: DIQLTQSPSFLSASVGDRVTITCWASQGISSYLAWYQQKPGKAPKLLIYGASTLQSGVPSRFSGSGSGTEFTLTISSLQPEDFATYYCQQLNSYPLTFGGGTKVEIKR ? 0.000118
